B1: Azoarcus group I ribozyme (parent)
chain: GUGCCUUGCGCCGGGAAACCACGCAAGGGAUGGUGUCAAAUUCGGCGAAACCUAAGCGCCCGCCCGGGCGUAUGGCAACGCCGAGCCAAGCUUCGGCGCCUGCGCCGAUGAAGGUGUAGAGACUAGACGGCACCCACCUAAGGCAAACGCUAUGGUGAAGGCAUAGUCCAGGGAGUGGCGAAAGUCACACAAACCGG

Variants of: B1
Experiment: reverse-splicing fitness (ratio to wild type); higher = more active; in vitro selection; Mg2+ level not given
Entries get a class label from measured reverse-splicing fitness. See ranges: low value = under 0.007, medium value = from 0.007 up to 0.01, high value = 0.01 and over

Prompt: Hey, which category is A145G C150A C169U U176C in, do you know?
Completion: high value

Prompt: Hey, which category is C82U A111G C150A U176A in, do you know?
Completion: high value

Prompt: Hey, which category is C82A A120G A145U C150G C169G in, do you know?
Completion: medium value

Prompt: Hey, which category is C82U A145U C150U U176G in, do you know?
Completion: high value

Prompt: Hey, which category is C82A A111C A120G A145U C150A C169U in, do you know?
Completion: medium value

Prompt: Hey, which category is A111C A120U C150U C169A in, do you know?
Completion: low value

Prompt: Hey, which category is C82A A120G A145G U176G in, do you know?
Completion: low value

Prompt: Hey, which category is C82G A111U A120G C169G U176C in, do you know?
Completion: high value

Prompt: Hey, which category is A111U A120C A145G C150A C169A U176G in, do you know?
Completion: low value

Prompt: Hey, which category is C82U A111G A120U A145U C150G U176G in, do you know?
Completion: low value

Prompt: Hey, which category is C82A A111C A120G A145U C169U U176A in, do you know?
Completion: high value

Prompt: Hey, which category is C82A A111C A145U C150A in, do you know?
Completion: high value

Prompt: Hey, which category is C82G A111C A145G C150G C169G U176C in, do you know?
Completion: high value

Prompt: Hey, which category is C82U A111U A120G A145G C169G U176G in, do you know?
Completion: low value

Prompt: Hey, which category is C82G A111G A120U A145G C150G C169U U176G in, do you know?
Completion: low value

Prompt: Hey, which category is A111U A120G C150G C169A U176C in, do you know?
Completion: medium value

Prompt: Hey, which category is C82A A111G A145C C150G C169A U176C in, do you know?
Completion: medium value

Prompt: Hey, which category is C82U A145C C150G U176G in, do you know?
Completion: medium value

Prompt: Hey, which category is C82A A120U A145U C150U C169U U176C in, do you know?
Completion: low value

Prompt: Hey, which category is C82U A111C A120C A145C C150A U176G in, do you know?
Completion: low value

Prompt: Hey, which category is C82A A111C A120G A145U C169G U176G in, do you know?
Completion: low value

Prompt: Hey, which category is C82A A111G A120G A145G C150U C169A U176A in, do you know?
Completion: high value

Prompt: Hey, which category is C82A A111C A120G C150G in, do you know?
Completion: medium value

Prompt: Hey, which category is C82U A120U A145U C150A U176A in, do you know?
Completion: low value

Prompt: Hey, which category is C82G A111G A120U A145U C150G in, do you know?
Completion: medium value

Prompt: Hey, which category is C82G A111C A145G C150G C169A U176C in, do you know?
Completion: high value

Prompt: Hey, which category is A111C A145U C150A C169G in, do you know?
Completion: high value

Prompt: Hey, which category is C82A A111C A120C A145C C150U C169U in, do you know?
Completion: high value

Prompt: Hey, which category is C82U A120G A145G U176A in, do you know?
Completion: high value

Prompt: Hey, which category is C82G A111U A120U A145G C150U C169G U176G in, do you know?
Completion: low value

Prompt: Hey, which category is C82A A120G C150A C169A U176A in, do you know?
Completion: high value

Prompt: Hey, which category is C82G A111C A120U A145C C150A C169A U176G in, do you know?
Completion: low value

Prompt: Hey, which category is C82U A111C A120C in, do you know?
Completion: high value

Prompt: Hey, which category is C82U A111C A120U A145C C169G in, do you know?
Completion: low value

Prompt: Hey, which category is A111G A120C A145G C150U in, do you know?
Completion: high value

Prompt: Hey, which category is C82U A111C A120U A145G C150A in, do you know?
Completion: medium value

Prompt: Hey, which category is A111C A145G C169U U176C in, do you know?
Completion: high value

Prompt: Hey, which category is C82U A111U C169A U176C in, do you know?
Completion: high value

Prompt: Hey, which category is C82A A111C A120U A145C C150A in, do you know?
Completion: low value

Prompt: Hey, which category is C82A A111G A145G C150U C169U U176G in, do you know?
Completion: low value

Prompt: Hey, which category is C82U A120U A145G C169G U176A in, do you know?
Completion: low value

Prompt: Hey, which category is C82A A111U A145C U176G in, do you know?
Completion: high value

Prompt: Hey, which category is C82G A111U A120C A145U C150A C169G U176A in, do you know?
Completion: high value

Prompt: Hey, which category is C82A A111U A145G U176C in, do you know?
Completion: high value

Prompt: Hey, which category is A111C A120U A145C C150G C169A U176C in, do you know?
Completion: low value
